target: hFXR (Homo sapiens, UniProt Q96RI1); experiment: In Vitro FXR Assay (TK): hFXR/hRXR TK-ECRE-luc reporter in transfected CV-1 cells; settings: CV-1 cells transfected with hFXR, hRXR, 18 hrs incubation, luminescence, maximum efficacy <25% of Fexarmine control also classified as ‘+’
Sequence (Q96RI1 whole entry): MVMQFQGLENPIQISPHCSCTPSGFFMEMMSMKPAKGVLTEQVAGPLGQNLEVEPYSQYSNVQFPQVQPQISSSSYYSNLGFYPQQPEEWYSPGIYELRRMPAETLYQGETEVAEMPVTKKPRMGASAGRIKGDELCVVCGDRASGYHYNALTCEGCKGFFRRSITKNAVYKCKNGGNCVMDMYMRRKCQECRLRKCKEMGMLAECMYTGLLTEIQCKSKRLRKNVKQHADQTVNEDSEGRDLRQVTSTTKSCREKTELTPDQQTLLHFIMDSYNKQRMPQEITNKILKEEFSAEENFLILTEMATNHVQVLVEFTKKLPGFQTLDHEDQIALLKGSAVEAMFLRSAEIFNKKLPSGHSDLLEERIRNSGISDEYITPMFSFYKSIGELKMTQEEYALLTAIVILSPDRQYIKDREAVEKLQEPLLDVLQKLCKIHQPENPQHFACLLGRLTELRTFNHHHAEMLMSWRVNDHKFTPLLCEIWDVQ
Sequence (P19793 whole entry partner): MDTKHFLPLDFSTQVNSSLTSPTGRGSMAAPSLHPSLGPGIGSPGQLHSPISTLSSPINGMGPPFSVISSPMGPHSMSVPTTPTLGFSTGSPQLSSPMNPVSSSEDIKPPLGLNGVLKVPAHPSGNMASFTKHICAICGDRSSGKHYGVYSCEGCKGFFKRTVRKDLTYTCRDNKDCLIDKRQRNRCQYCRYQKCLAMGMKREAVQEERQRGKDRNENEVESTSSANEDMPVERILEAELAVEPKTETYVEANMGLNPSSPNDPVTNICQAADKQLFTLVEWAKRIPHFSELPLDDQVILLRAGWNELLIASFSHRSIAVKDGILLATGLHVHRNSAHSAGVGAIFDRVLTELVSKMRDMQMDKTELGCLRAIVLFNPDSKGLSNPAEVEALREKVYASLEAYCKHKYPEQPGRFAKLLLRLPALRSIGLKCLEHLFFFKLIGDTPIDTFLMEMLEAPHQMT
Below, each of the compounds is paired with its reported EC50 value.

Before answering, review these 3 worked examples.
1. COc1ccc([C@H]2CC[C@H](CN(c3cccc(-n4cnc(C)c4)c3)C(=O)[C@H]3CC[C@H](O)CC3)CC2)cc1C; 500 to 1000 nM
2. COc1ccc([C@H]2CC[C@H](CN(c3cccc(C#Cc4nnn(C)n4)c3)C(=O)[C@H]3CC[C@H](O)CC3)CC2)cc1C; ≤ 500 nM
3. CCc1cc(-c2cccc(N(C[C@H]3CC[C@H](c4ccc(OC)c(C)c4)CC3)C(=O)[C@H]3CC[C@H](O)CC3)c2)ns1; ≤ 500 nM

query: For the compound COc1ccc([C@H]2CC[C@H](CN(c3cccc(-c4nc(C)ns4)c3)C(=O)[C@H]3CC[C@H](O)CC3)CC2)cc1C , what EC50 is on record?
result: 500 to 1000 nM

query: Also COc1ccc([C@H]2CC[C@H](CN(c3cccc(-c4coc(C(C)C)n4)c3)C(=O)[C@H]3CC[C@H](O)CC3)CC2)cc1C ?
result: ≤ 500 nM

query: Also COc1ccc(-c2cccc(N(C[C@H]3CC[C@H](c4ccc(OC)c(C)c4)CC3)C(=O)[C@H]3CC[C@H](O)CC3)c2)nc1 ?
result: ≤ 500 nM

query: Also COc1ccc(C23CCC(CN(c4cccc(-c5cc(C6CC6)ns5)c4)C(=O)[C@H]4CC[C@H](O)CC4)(CC2)CC3)cc1C ?
result: ≤ 500 nM

query: Also COc1ccc([C@H]2CC[C@H](CN(c3cccc(-c4coc(C5CC5)n4)c3)C(=O)[C@H]3CC[C@H](O)CC3)CC2)cc1C ?
result: ≤ 500 nM

====

molecular target: hFXR (Homo sapiens); test: In Vitro FXR Assay (TK): hFXR/hRXR TK-ECRE-luc reporter in transfected CV-1 cells; details: CV-1 cells transfected with hFXR, hRXR, 18 hrs incubation, luminescence, maximum efficacy <25% of Fexarmine control also classified as ‘+’
pEC50: −log10 of the molar value.
Below, each of the molecules is paired with its reported pEC50 value.

1) COc1ccc(C23CCC(CN(c4cccc(-c5coc(C6CC6)n5)c4)C(=O)[C@H]4CC[C@H](O)CC4)(CC2)CC3)cc1C [Compound 10]; ≥ 6.30
2) COc1ccc([C@H]2CC[C@H](CN(c3cccc(-c4ncn(C)n4)c3)C(=O)[C@H]3CC[C@H](O)CC3)CC2)cc1C [Compound 2.10]; ≤ 6.00
3) COc1ccc([C@H]2CC[C@H](CN(c3cccc(-c4ccc(C(C)C)nc4)c3)C(=O)[C@H]3CC[C@H](O)CC3)CC2)cc1C [Compound 2.03]; ≥ 6.30
4) COc1ccc([C@H]2CC[C@H](CN(c3cc(-c4coc(C5CC5)n4)ccn3)C(=O)[C@H]3CC[C@H](O)CC3)CC2)cc1C [Compound 10.07]; ≥ 6.30
5) COc1ccc([C@H]2CC[C@H](CN(c3cccc(-c4ccc(N(C)C)nc4)c3)C(=O)[C@H]3CC[C@H](O)CC3)CC2)nc1C [Compound 10.15]; ≥ 6.30
6) COc1ccc([C@H]2CC[C@H](CN(c3cc(-c4coc(C5CC5)n4)ccn3)C(=O)[C@H]3CC[C@H](O)CC3)CC2)nc1C [Compound 10.09]; ≥ 6.30
7) COc1ccc([C@H]2CC[C@H](CN(c3cccc(-c4ccc(OC(C)C)nc4)c3)C(=O)[C@H]3CC[C@H](O)CC3)CC2)cc1C [Compound 1.06]; ≥ 6.30
8) COc1ncc([C@H]2CC[C@H](CN(c3cc(-c4coc(C5CC5)n4)ccn3)C(=O)[C@H]3CC[C@H](O)CC3)CC2)cc1C [Compound 10.23]; ≥ 6.30

query: For the molecule COc1ccc(-c2cccc(N(C[C@H]3CC[C@H](c4ccc(OC)c(C)c4)CC3)C(=O)[C@H]3CC[C@H](O)CC3)c2)cn1 [Compound 1.01] , what pEC50 is on record?
result: ≥ 6.30

====

Target: hFXR (Homo sapiens, UniProt Q96RI1)
Assay: In Vitro FXR Assay (TK): hFXR/hRXR TK-ECRE-luc reporter in transfected CV-1 cells
Conditions: CV-1 cells transfected with hFXR, hRXR, 18 hrs incubation, luminescence, maximum efficacy <25% of Fexarmine control also classified as ‘+’
Description: Example B-1: In Vitro FXR Assay (TK) CV-1 cells were seeded at a density of 2,000,000 cells in a T175 flask with DMEM+10% charcoal double-stripped FBS and incubated at 37° C. in 5% CO2 for 18 h (O/N). After 18 h of incubation, the medium in the T175 flask was changed with fresh DMEM+10% charcoal super-stripped serum. […] Compounds were serially diluted in DMSO and added to transfected CV-1 cells. […] The next day cells were lysed and examined for luminescence.
QUANTITY: EC50

1) COc1ccc([C@H]2CC[C@H](CN(c3cccc(-n4nnc(C)n4)c3)C(=O)[C@H]3CC[C@H](O)CC3)CC2)cc1C; 500 to 1000 nM
2) COc1ccc([C@H]2CC[C@@H](CN(c3cccc(-c4coc(C5CC5)n4)c3)C(=O)[C@H]3CC[C@H](O)CC3)CC2)nc1C; ≥ 1000 nM
3) COc1ccc([C@H]2CC[C@H](CN(c3cccc(-c4coc(C5CC5)n4)c3)C(=O)[C@H]3CC[C@H](O)CC3)CC2)cc1C#N; ≤ 500 nM
4) COc1ccc([C@H]2CC[C@H](CN(c3cccc(-c4coc(C5CC5)n4)c3)C(=O)[C@H]3CC[C@H](O)CC3)CC2)nc1C; ≤ 500 nM
5) COc1ccc([C@H]2CC[C@H](CN(c3cccc(-n4cnc(C5CC5)n4)c3)C(=O)[C@H]3CC[C@H](O)CC3)CC2)cc1C; ≤ 500 nM
6) COc1ccc([C@H]2CC[C@H](CN(c3cccc(-n4cc(C)nn4)c3)C(=O)[C@H]3CC[C@H](O)CC3)CC2)cc1C; ≥ 1000 nM
7) COc1ccc([C@H]2CC[C@H](CN(c3cccc(-c4cnc(C)o4)c3)C(=O)[C@H]3CC[C@H](O)CC3)CC2)cc1C; ≤ 500 nM
8) COc1ccc([C@H]2CC[C@H](CN(c3cccc(C#Cc4ccccn4)c3)C(=O)[C@H]3CC[C@H](O)CC3)CC2)cc1C; ≤ 500 nM

query: Hi! What's the reported EC50 for COc1ccc([C@H]2CC[C@H](CN(c3cccc(-c4ccc(C(F)(F)F)nc4)c3)C(=O)[C@H]3CC[C@H](O)CC3)CC2)cc1C on hFXR (Homo sapiens, UniProt Q96RI1)?
result: ≤ 500 nM

query: Also COc1ccc([C@H]2CC[C@H](CN(c3cccc(-c4cn(C)cn4)c3)C(=O)[C@H]3CC[C@H](O)CC3)CC2)cc1C ?
result: ≥ 1000 nM

query: Also COc1ccc([C@H]2CC[C@H](CN(c3cc(-c4ccc(N(C)C)nc4)ccn3)C(=O)[C@H]3CC[C@H](O)CC3)CC2)cc1C ?
result: ≤ 500 nM

====

biological target: hFXR (Homo sapiens, UniProt Q96RI1); experiment: In Vitro FXR Assay (TK): hFXR/hRXR TK-ECRE-luc reporter in transfected CV-1 cells; conditions: CV-1 cells transfected with hFXR, hRXR, 18 hrs incubation, luminescence, maximum efficacy <25% of Fexarmine control also classified as ‘+’
Below, each of the compounds is paired with its reported EC50 value.

Before answering, review these 3 worked examples.
1. COc1ccc([C@H]2CC[C@H](CN(c3cccc(-c4ccc(C5CC5)nc4)c3)C(=O)[C@H]3CC[C@H](O)CC3)CC2)cc1C [Compound 1.07]; ≤ 500 nM
2. COc1ccc([C@H]2CC[C@H](CN(c3cccc(-c4ccc(N(C)C)nc4)c3)C(=O)[C@H]3CC[C@H](O)CC3)CC2)cc1C [Compound 1]; ≤ 500 nM
3. COc1ccc([C@H]2CC[C@H](CN(c3cccc(C#Cc4nncs4)c3)C(=O)[C@H]3CC[C@H](O)CC3)CC2)cc1C [Compound 11.02]; ≤ 500 nM

query: For the compound COc1ccc([C@H]2CC[C@H](CN(c3cccc(C#Cc4ncco4)c3)C(=O)[C@H]3CC[C@H](O)CC3)CC2)cc1C [Compound 11.01] , what EC50 is on record?
result: ≤ 500 nM

query: Also COc1ccc([C@H]2CC[C@H](CN(c3cccc(C#Cc4cn[nH]n4)c3)C(=O)[C@H]3CC[C@H](O)CC3)CC2)cc1C [Compound 14.01] ?
result: ≤ 500 nM

query: Also COc1ccc([C@H]2CC[C@H](CN(c3cccc(-c4coc(C5CC5)n4)c3)C(=O)[C@H]3CC[C@H](O)CC3)CC2)nc1C#N [Compound 10.14] ?
result: ≤ 500 nM

query: Also COc1ccc([C@H]2CC[C@H](CN(c3cccc(-c4cc(C)no4)c3)C(=O)[C@H]3CC[C@H](O)CC3)CC2)cc1C [Compound 3] ?
result: ≤ 500 nM
